src = patent US10941152B2

target: follicle-stimulating hormone (FSH) receptor (Rattus norvegicus); construct: endogenous in cells; assay: Rat granulosa EC50 FSH (Assay B)
pEC50: −log10 of the molar value.
reported.metric: pEC50

* COc1cc(OC)cc(-n2nc(C(=O)N3CC[S+]([O-])CC3(C)C)c3c2-c2cc(-c4ccccn4)c(OC)cc2OC3)c1 (stereo not shown) [Compound 41] | 6.30 to 7.00
* COc1cc2c(cc1-c1cc(C)cnc1F)-c1c(c(C(=O)N(C)C(C)(C)C)nn1-c1ccsc1)CO2 [Compound 62] | 7.00 to 8.00
* COc1cc2c(cc1-c1cc(C#N)ccn1)-c1c(c(C(=O)N(C)C(C)(C)C)nn1-c1cc(Cl)cc(Cl)c1)CO2 [Compound 26] | 6.30 to 7.00
* COc1cc2c(cc1-c1cnn(CC(=O)N3CCC3)c1)-c1c(c(C(=O)N(C)C(C)(C)C)nn1-c1cc(Cl)cc(Cl)c1)CO2 [Compound 95] | 7.00 to 8.00

###

Consider the following compounds and their measured pEC50 readings.
Target: follicle-stimulating hormone (FSH) receptor (Rattus norvegicus)
Construct: endogenous in cells; host or cells: rat granulosa cells
Sequence (P20395 18-692): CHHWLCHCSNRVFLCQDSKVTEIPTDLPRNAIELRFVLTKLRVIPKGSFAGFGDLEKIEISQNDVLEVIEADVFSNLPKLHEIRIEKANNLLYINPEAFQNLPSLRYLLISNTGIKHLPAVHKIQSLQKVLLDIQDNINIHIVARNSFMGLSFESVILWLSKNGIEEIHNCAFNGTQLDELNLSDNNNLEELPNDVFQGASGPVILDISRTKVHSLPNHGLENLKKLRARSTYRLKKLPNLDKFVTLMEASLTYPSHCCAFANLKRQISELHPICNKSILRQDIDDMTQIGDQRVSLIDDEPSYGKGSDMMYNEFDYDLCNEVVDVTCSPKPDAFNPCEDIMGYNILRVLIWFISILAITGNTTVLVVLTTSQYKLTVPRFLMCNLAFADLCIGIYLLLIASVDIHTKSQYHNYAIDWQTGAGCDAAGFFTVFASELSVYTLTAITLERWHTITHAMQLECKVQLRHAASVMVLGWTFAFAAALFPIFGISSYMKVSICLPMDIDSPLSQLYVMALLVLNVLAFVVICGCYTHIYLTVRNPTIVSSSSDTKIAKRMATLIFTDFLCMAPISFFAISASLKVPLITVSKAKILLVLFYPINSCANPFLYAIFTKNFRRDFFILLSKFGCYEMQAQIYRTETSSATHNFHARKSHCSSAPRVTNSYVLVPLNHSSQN
Test: Rat granulosa EC50 FSH (Assay B)
Format: cell-based
pEC50: −log10 of the molar value.
reported.metric: pEC50

• COc1cc2c(cc1-c1ccccc1C(N)=O)-c1c(c(C(=O)N(C)C(C)(C)C)nn1-c1cc(Cl)cc(Cl)c1)CO2 [Compound 98] = 6.30 to 7.00
• COc1cc2c(cc1-c1ccc(N)nc1)-c1c(c(C(=O)N(C)C(C)(C)C)nn1-c1cc(Cl)cc(Cl)c1)CO2 [Compound 16] = 6.30 to 7.00
• COc1cc2c(cc1-c1cncc(C#N)c1)-c1c(c(C(=O)N3CCC(O)CC3(C)C)nn1-c1cc(F)cc(F)c1)CO2 (stereo not shown) [Compound 50] = 6.30 to 7.00
• COc1cc2c(cc1-c1cn(CC(N)=O)nc1C)-c1c(c(C(=O)N(C)C(C)(C)C)nn1-c1cc(Cl)cc(Cl)c1)CO2 [Compound 142] = 7.00 to 8.00
• COc1cc2c(cc1-c1nn(C)cc1C#N)-c1c(c(C(=O)N3CCOCC3(C)C)nn1-c1cc(F)cc(F)c1)CO2 [Compound 150] = 7.00 to 8.00
• CNC(=O)c1cncc(-c2cc3c(cc2OC)OCc2c(C(=O)N4CCOCC4(C)C)nn(-c4cc(Cl)cc(Cl)c4)c2-3)c1 [Compound 94] = > 8.00
• COc1cc2c(cc1-c1nn(C)cc1Br)-c1c(c(C(=O)N(C)C(C)(C)C)nn1-c1cc(Cl)cc(Cl)c1)CO2 [Compound 148] = 7.00 to 8.00
• COc1cc2c(cc1C1C=NN=C1C)-c1c(c(C(=O)N(C)C(C)(C)C)nn1-c1cc(Cl)cc(Cl)c1)CO2 (stereo not shown) [Compound 141] = 7.00 to 8.00
• COc1cc2c(cc1-c1c(C)nn(CC(=O)N(C)C)c1C)-c1c(c(C(=O)N(C)C(C)(C)C)nn1-c1cc(Cl)cc(Cl)c1)CO2 [Compound 136] = 7.00 to 8.00
• COc1cc2c(cc1-c1cncc(C#N)c1)-c1c(c(C(=O)N3CCOCC3(C)C)nn1-c1cc(Cl)cc(Cl)c1)CO2 [Compound 12] = 7.00 to 8.00
• COc1cc2c(cc1-c1cccc(C#N)c1)-c1c(c(C(=O)N(C)C(C)(C)C)nn1-c1cc(Cl)cc(Cl)c1)CO2 [Compound 18] = 6.30 to 7.00
• COc1cc2c(cc1-c1cccc(F)c1C#N)-c1c(c(C(=O)N(C)C(C)(C)C)nn1-c1cc(Cl)cc(Cl)c1)CO2 [Compound 25] = 7.00 to 8.00
• COc1cc2c(cc1-c1cncc(C(N)=O)c1)-c1c(c(C(=O)N3CCOCC3(C)C)nn1-c1cc(F)cc(F)c1)CO2 [Compound 164] = > 8.00
